src = paper PMC12935787

ASSAY PROTOCOL: Clinical pharmacokinetics, plasma LC-MS/MS after single oral dose of AP capsules
Format: in vivo, human (healthy volunteers)
STUDY CONDITIONS: human; plasma, 2000 mg AP capsules oral, fasting, n=5
OBSERVED PROPERTY: AUC(0-inf)
Kindly report the value followed by its unit.

Solved cases below.
The recorded AUC(0-inf) for C=C1CC[C@@H]2[C@](C)(CO[C@@H]3O[C@H](CO)[C@@H](O)[C@H](O)[C@H]3O)CCC[C@@]2(C)[C@@H]1CCC1=CCOC1=O [neoandrographolide] is 163 ng·h/mL

The recorded AUC(0-inf) for C=C1CC[C@@H]2[C@](C)(CO)[C@H](O)CC[C@@]2(C)[C@@H]1CCC1=CCOC1=O [14-deoxyandrographolide] is 21.2 ng·h/mL

Please examine the following record next.
The recorded AUC(0-inf) for C=C1CC[C@@H]2[C@](C)(CO)[C@H](O)CC[C@@]2(C)[C@@H]1C/C=C1/C(=O)OC[C@H]1O [andrographolide] is 20.9 ng·h/mL

---

Entries and their concentration at 2 h values follow.
ASSAY PROTOCOL: Clinical pharmacokinetics, plasma LC-MS/MS after single oral dose of AP capsules
Format: in vivo, human (healthy volunteers)
STUDY CONDITIONS: human, plasma, oral, 2000 mg, S1; 2.00 h; 2000 mg AP capsules; read-out: Plasma concentration
Express the result in ng/mL but write the number alone.

The recorded concentration at 2 h for C=C1CC[C@@H]2[C@](C)(CO[C@@H]3O[C@H](CO)[C@@H](O)[C@H](O)[C@H]3O)CCC[C@@]2(C)[C@@H]1CCC1=CCOC1=O [neoandrographolide] is 32

The recorded concentration at 2 h for C=C1CC[C@@H]2[C@](C)(CO)[C@H](O)CC[C@@]2(C)[C@@H]1CCC1=CCOC1=O [14-deoxyandrographolide] is 5.18

Please examine the following record next.
The recorded concentration at 2 h for C=C1CC[C@@H]2[C@](C)(CO)[C@H](O)CC[C@@]2(C)[C@@H]1C/C=C1/C(=O)OC[C@H]1O [andrographolide] is 5.31

---

Entries and their concentration at 6 h values follow.
ASSAY PROTOCOL: Clinical pharmacokinetics, plasma LC-MS/MS after single oral dose of AP capsules
Type: in vivo, human (healthy volunteers)
STUDY CONDITIONS: human, plasma, oral, 2000 mg, S3; 6.00 h; 2000 mg AP capsules; read-out: Plasma concentration
Kindly report the value followed by its unit.

Solved cases below.
The recorded concentration at 6 h for C=C1CC[C@@H]2[C@](C)(CO[C@@H]3O[C@H](CO)[C@@H](O)[C@H](O)[C@H]3O)CCC[C@@]2(C)[C@@H]1CCC1=CCOC1=O [neoandrographolide] is 0 ng/mL

The recorded concentration at 6 h for C=C1CC[C@@H]2[C@](C)(CO)[C@H](O)CC[C@@]2(C)[C@@H]1C/C=C1/C(=O)OC[C@H]1O [andrographolide] is 0 ng/mL

More entries:
The recorded concentration at 6 h for C=C1CC[C@@H]2[C@](C)(CO)[C@H](O)CC[C@@]2(C)[C@@H]1CCC1=CCOC1=O [14-deoxyandrographolide] is 0 ng/mL

---

Entries and their concentration at 2.5 h values follow.
ASSAY PROTOCOL: Clinical pharmacokinetics, plasma LC-MS/MS after single oral dose of AP capsules
Assay type: in vivo, human (healthy volunteers)
STUDY CONDITIONS: human, plasma, oral, 2000 mg, S1; 2.50 h; 2000 mg AP capsules; read-out: Plasma concentration
Express the result in ng/mL but write the number alone.

Solved cases below.
The recorded concentration at 2.5 h for C=C1CC[C@@H]2[C@](C)(CO)[C@H](O)CC[C@@]2(C)[C@@H]1C/C=C1/C(=O)OC[C@H]1O [andrographolide] is 2.17

The recorded concentration at 2.5 h for C=C1CC[C@@H]2[C@](C)(CO)[C@H](O)CC[C@@]2(C)[C@@H]1CCC1=CCOC1=O [14-deoxyandrographolide] is 3.32

Please examine the following record next.
The recorded concentration at 2.5 h for C=C1CC[C@@H]2[C@](C)(CO[C@@H]3O[C@H](CO)[C@@H](O)[C@H](O)[C@H]3O)CCC[C@@]2(C)[C@@H]1CCC1=CCOC1=O [neoandrographolide] is 19.7
